Biological target: recombinant human GluN1/GluN2A receptor (Homo sapiens, UniProt Q05586+Q12879)
Construct: expressed in transfected cells; host or cells: HEK293, tetracycline-inducible expression
Sequence (Q12879 23-1464, other chains not shown): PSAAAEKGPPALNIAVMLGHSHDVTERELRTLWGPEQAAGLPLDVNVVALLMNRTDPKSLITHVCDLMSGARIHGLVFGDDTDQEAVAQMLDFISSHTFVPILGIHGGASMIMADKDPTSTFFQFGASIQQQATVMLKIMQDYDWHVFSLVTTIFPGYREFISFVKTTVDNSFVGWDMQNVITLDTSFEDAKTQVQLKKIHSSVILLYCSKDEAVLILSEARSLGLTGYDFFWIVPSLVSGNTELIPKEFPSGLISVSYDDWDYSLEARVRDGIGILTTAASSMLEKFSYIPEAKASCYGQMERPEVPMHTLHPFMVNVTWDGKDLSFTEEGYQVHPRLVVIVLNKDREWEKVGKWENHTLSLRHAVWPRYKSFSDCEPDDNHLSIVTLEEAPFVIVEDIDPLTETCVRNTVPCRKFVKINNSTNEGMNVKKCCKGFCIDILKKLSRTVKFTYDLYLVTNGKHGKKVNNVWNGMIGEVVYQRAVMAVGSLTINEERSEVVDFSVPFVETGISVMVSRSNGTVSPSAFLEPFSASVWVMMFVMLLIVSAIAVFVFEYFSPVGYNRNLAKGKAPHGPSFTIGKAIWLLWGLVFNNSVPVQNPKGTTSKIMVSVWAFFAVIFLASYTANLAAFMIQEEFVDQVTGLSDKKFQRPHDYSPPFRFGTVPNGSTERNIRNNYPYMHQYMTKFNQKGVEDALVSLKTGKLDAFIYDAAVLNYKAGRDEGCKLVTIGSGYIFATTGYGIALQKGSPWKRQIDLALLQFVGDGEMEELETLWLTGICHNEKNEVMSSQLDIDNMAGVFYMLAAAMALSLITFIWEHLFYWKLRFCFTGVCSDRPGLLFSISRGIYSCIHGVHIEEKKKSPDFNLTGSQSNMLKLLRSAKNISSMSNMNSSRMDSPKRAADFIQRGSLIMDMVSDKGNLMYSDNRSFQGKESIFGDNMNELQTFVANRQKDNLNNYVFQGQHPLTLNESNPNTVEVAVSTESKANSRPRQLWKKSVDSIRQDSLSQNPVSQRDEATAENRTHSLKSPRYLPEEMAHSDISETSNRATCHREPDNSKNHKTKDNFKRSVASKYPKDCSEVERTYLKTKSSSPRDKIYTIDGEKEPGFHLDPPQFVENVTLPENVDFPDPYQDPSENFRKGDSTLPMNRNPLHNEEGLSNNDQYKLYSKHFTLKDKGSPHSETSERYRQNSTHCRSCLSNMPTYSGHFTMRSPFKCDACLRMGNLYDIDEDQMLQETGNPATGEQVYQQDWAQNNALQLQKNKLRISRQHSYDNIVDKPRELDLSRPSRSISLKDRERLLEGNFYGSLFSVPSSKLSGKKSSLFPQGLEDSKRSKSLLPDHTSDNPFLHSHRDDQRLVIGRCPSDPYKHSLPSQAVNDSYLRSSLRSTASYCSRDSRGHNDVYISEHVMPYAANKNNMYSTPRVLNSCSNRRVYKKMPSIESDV
Assay: Whole-cell patch clamp of mammalian cells (Syncropatch 384i), NMDA modulation
Type: cell-based
Settings: Table C-2; HEK293 cells, human GluN1/GluN2A; glutamate 1 μM / glycine 100 μM; -80 mV; peak amplitude increase
# key: entry, value: Emax

# count of solved cases: 2
>>> result("CC[C@]1(O)CC[C@@]2(C)[C@@H](CC[C@@H]3[C@@H]2CC[C@]2(C)[C@@H]([C@H](C)CC[C@@H](O)C(C)(C)C#N)CC[C@@H]32)C1")
"> 200%"
>>> result("CC[C@]1(O)CC[C@@]2(C)[C@@H](CC[C@@H]3[C@@H]2CC[C@]2(C)[C@@H]([C@H](C)CC[C@@H](O)CC#N)CC[C@@H]32)C1")
"100 to 200%"

Asked: Give a short answer stating reported Emax for CC[C@@H](C#N)[C@H](O)CC[C@@H](C)[C@H]1CC[C@H]2[C@@H]3CC[C@H]4C[C@](O)(CC)CC[C@]4(C)[C@H]3CC[C@]12C .
Given back: > 200%

Asked: Look up Emax of COC[C@]1(O)CC[C@@]2(C)[C@@H](CC[C@@H]3[C@@H]2CC[C@]2(C)[C@@H]([C@H](C)CC[C@@H](O)C(C)(C)C#N)CC[C@@H]32)C1 and report it.
Given back: < 100%

Asked: Tell me its Emax given CC[C@]1(O)CC[C@@]2(C)[C@@H](CC[C@@H]3[C@@H]2CC[C@]2(C)[C@@H]([C@H](C)CC[C@@H](O)C4(C#N)CC4)CC[C@@H]32)C1 as the entry.
Given back: > 200%

Asked: Given CC[C@@H](C#N)[C@@H](O)CC[C@@H](C)[C@H]1CC[C@H]2[C@@H]3CC[C@H]4C[C@](O)(CC)CC[C@]4(C)[C@H]3CC[C@]12C , respond with its Emax.
Given back: < 100%

Asked: Query Emax for CC[C@H](C#N)[C@@H](O)CC[C@@H](C)[C@H]1CC[C@H]2[C@@H]3CC[C@H]4C[C@](O)(CC)CC[C@]4(C)[C@H]3CC[C@]12C
Given back: 100 to 200%

Asked: Given the compound CC[C@]1(O)CC[C@@]2(C)[C@@H](CC[C@@H]3[C@@H]2CC[C@]2(C)[C@@H]([C@H](C)CC[C@H](O)C4(C#N)CC4)CC[C@@H]32)C1 , write its reported Emax.
Given back: < 100%

Asked: Specify Emax for C[C@H](CC[C@H](O)C1(C#N)CCC1)[C@H]1CC[C@H]2[C@@H]3CC=C4C[C@@](C)(O)CC[C@]4(C)[C@H]3CC[C@]12C and stop.
Given back: < 100%
